Test: Mouse pharmacokinetic study of oral GE with and without ketoconazole, plasma with and without β-glucuronidase treatment
Type: in vivo, male mice (C57BL6J)
Settings: male, C57BL6J; mouse plasma; 250 mg/kg GE with 50 mg/kg ketoconazole oral; 0.25 h; −βgd
measuredProperty: concentration at 0.25 h (ng/mL)

compound | measuredProperty | unitOfMeasure | experimentalResult
CCCCCCCC(O)CC(=O)CCc1ccc(O)c(OC)c1 (stereo not shown) [8G, 8-gingerol] | concentration at 0.25 h | ng/mL | 6.93
CCCCC/C=C/C(=O)CCc1ccc(O)c(OC)c1 [6S, 6-shogaol] | concentration at 0.25 h | ng/mL | 0
CCCCCCCCCC(O)CC(=O)CCc1ccc(O)c(OC)c1 (stereo not shown) [10G, 10-gingerol] | concentration at 0.25 h | ng/mL | 20.5
CCCCC[C@H](O)CC(=O)CCc1ccc(O)c(OC)c1 [6G, 6-gingerol] | concentration at 0.25 h | ng/mL | 35.9

* * *

Test: Mouse pharmacokinetic study of oral GE with and without ketoconazole, plasma with and without β-glucuronidase treatment
Type: in vivo, male mice (C57BL6J)
Details: GE administered group, mouse plasma; 2 h
measuredProperty: Concentration Ratio (Total/Free) of GE Phenolics

molecule | experimentalResult
CCCCCCCC(O)CC(=O)CCc1ccc(O)c(OC)c1 (stereo not shown) | 44
CCCCC/C=C/C(=O)CCc1ccc(O)c(OC)c1 | 16
CCCCCCCCCC(O)CC(=O)CCc1ccc(O)c(OC)c1 (stereo not shown) [10G, 10-gingerol] | 19
CCCCC[C@H](O)CC(=O)CCc1ccc(O)c(OC)c1 | 53

* * *

Experiment: Mouse pharmacokinetic study of oral GE with and without ketoconazole, plasma with and without β-glucuronidase treatment
Format: in vivo, male mice (C57BL6J)
Settings: male, C57BL6J; mouse plasma; 250 mg/kg GE oral; 0.087 h; −βgd
Overview of recorded concentration at 0.087 h for various compounds

compound | concentration at 0.087 h (ng/mL)
CCCCC/C=C/C(=O)CCc1ccc(O)c(OC)c1 | 3.17
CCCCCCCCCC(O)CC(=O)CCc1ccc(O)c(OC)c1 (stereo not shown) [10G, 10-gingerol] | 43.1
CCCCCCCC(O)CC(=O)CCc1ccc(O)c(OC)c1 (stereo not shown) | 0.58
CCCCC[C@H](O)CC(=O)CCc1ccc(O)c(OC)c1 | 0

* * *

Quick reference for concentration at 2 h among some compounds
Assay: Mouse pharmacokinetic study of oral GE with and without ketoconazole, plasma with and without β-glucuronidase treatment
Type: in vivo, male mice (C57BL6J)
Conditions: male, C57BL6J; mouse plasma; 250 mg/kg GE with 50 mg/kg ketoconazole oral; 2 h; −βgd
Method: A solution formulation of GE was prepared by using 5% ethanol, 5% Tween 80, 40% polyethylene glycol, and 50% corn oil. The dose volume was 10 mL/kg and the dose administered was 250 mg/kg GE. […] To confirm the presence of GE glucuronide conjugates, plasma (100 μL) was treated with βgd (20 μL, 500 units) and incubated at 37 °C for 1 h. Each sample was analyzed twice with and without β-gd treatment. […]

compound | concentration at 2 h
CCCCC/C=C/C(=O)CCc1ccc(O)c(OC)c1 | 75900 ng/mL
CCCCC[C@H](O)CC(=O)CCc1ccc(O)c(OC)c1 | 70900 ng/mL
CCCCCCCCCC(O)CC(=O)CCc1ccc(O)c(OC)c1 (stereo not shown) [10G, 10-gingerol] | 27900 ng/mL
CCCCCCCC(O)CC(=O)CCc1ccc(O)c(OC)c1 (stereo not shown) | 16300 ng/mL
